Tested on: SK-MEL-28
assay: NCI tumour cell line growth inhibition, 48 h
Calls of active or inactive are those of the source. No stated cut-off is given here; in the data, active = GI50 up to about 1.1 µM and inactive = higher.
Could you please pick one outcome from this set? label 1 for active, label 0 for inactive

Field: example entries. Status: answers known.
Ask: Could you kindly confirm the outcome this assay logged for CC(C)(C)OC(=O)N(O)[C@@H]1CC[C@H](n2cnc3c(N)ncnc32)C1 ?
Reply: label 0

Ask: Also C1CCNCC1.S=C(S)N1CCCCC1 ?
Reply: label 0

Next:
Ask: Could you kindly confirm the outcome this assay logged for COc1ccc([N+](=O)[O-])cc1[I+]c1cc([N+](=O)[O-])ccc1OC ?
Reply: label 0

Ask: Also O=C1NC(=O)C2(CCCCCC2)N1 ?
Reply: label 0

Ask: Also Nc1nc(Cl)cc(NCC2(O)CCCC2)n1 ?
Reply: label 0

----------
Quick list: GI50 per entry.
Tested on: NCI-H23
assay: NCI tumour cell line growth inhibition, 48 h
Active and inactive are the calls of the source. Cut-off read from the data, not from the text of the source: active = GI50 up to about 1.1 µM and inactive = higher.

Ask: Form entry - test system: NCI-H23; read-out: GI50; compound: Cn1c(=O)nc2n(-c3ccc(Cl)cc3Cl)c3ccccc3nc-2c1=O
Reply: 3.27 µM (inactive)

Next:
Ask: Form entry - test system: NCI-H23; read-out: GI50; compound: O=C(CCC(=O)Nc1ccc(Cl)c(Cl)c1)CC(=O)c1ccc(Br)cc1
Reply: > 100 µM (inactive)

Ask: Also CC1C(NNC(N)=O)Oc2cc3c(cc2C1c1ccccc1O)OCO3 (stereo not given) ?
Reply: 89.9 µM (inactive)

Ask: Also O=C(O)c1ccccc1/C=C1/Cc2ccc3c(c2C1=O)CCC3 ?
Reply: 35.6 µM (inactive)

Ask: Also O=C(/C(=N\Nc1ccc([N+](=O)[O-])cc1[N+](=O)[O-])NC12CC3CC(CC(C3)C1)C2)C(Br)C(=O)c1ccccc1 (stereo not given) ?
Reply: 3.33 µM (inactive)

Ask: Also COC(=O)[C@@H]1CCCN1CCN1CCC[C@H]1C(=O)OC ?
Reply: > 100 µM (inactive)

Ask: Also CCN(CC)C(=S)SS(=O)(=O)c1ccc(N)cc1 ?
Reply: > 100 µM (inactive)

Ask: Also O=[N+]([O-])C1(CO)COC(CCc2ccccc2)OC1 (stereo not given) ?
Reply: > 100 µM (inactive)

Ask: Also Cc1cc2c(c(/C=N/c3ccc([N+](=O)[O-])cc3)c1)OC1(C=C2)Oc2ccccc2C(=O)N1C (stereo not given) ?
Reply: 18.2 µM (inactive)

Ask: Also OC1CSc2nc3ccccc3n2C1 (stereo not given) ?
Reply: > 100 µM (inactive)

----------
System: SR
assay: NCI tumour cell line growth inhibition, 48 h
Activity calls are given as the source filed them. No stated cut-off is given here; in the data, active = GI50 up to about 1.1 µM and inactive = higher.
Quick list: GI50 per entry.

Recorded results for 5 molecules are shown here.
Ask: Fill blank: measured GI50 of the molecule CCOC1=C(c2ccccc2)N2CCCCC2O1 (stereo unspecified) is ____.
Reply: 3.71 µM (inactive)

Ask: Also ClC1=C(Cl)C(Cl)(Cl)c2c3c(c4c(c21)C(Cl)(Cl)C(Cl)=C4Cl)C(Cl)(Cl)C(Cl)=C3Cl ?
Reply: > 100 µM (inactive)

Ask: Also CCOC(=O)/C(=C\c1ccc(O)c(OC)c1)C(=O)c1ccccc1 ?
Reply: 11 µM (inactive)

Ask: Also CCOC(=O)C(Cc1ccc(N(CCCl)CCCl)cc1)NC(=O)C(Cc1ccccc1)NC=O (stereo unspecified) ?
Reply: 0.00811 µM (active)

Ask: Also CC1=[N+](C)CCN1C ?
Reply: > 100 µM (inactive)

Kindly review the next molecule as well.
Ask: Fill blank: measured GI50 of the molecule O=C1CC(CC(O)C(O)C(O)CO)CC(=O)N1 (stereo unspecified) is ____.
Reply: > 100 µM (inactive)
